High affinity nerve growth factor receptor (Homo sapiens) IC50, compiled from various sources.

Record excerpt, results attached:
COCCN1C[C@@H](NC(=O)Nc2c(C)c(-c3cn(C)cn3)nn2-c2ccccc2)[C@H](c2ccc(F)c(F)c2)C1 | < 100 nM
CC(C)n1cc(C(=O)Nc2ccc(Oc3ccnc4cc(OCCCO)c5c(c34)OCCO5)c(F)c2)c(=O)n(-c2ccc(F)cc2)c1=O | < 50 nM
COCCN1C[C@@H](NC(=O)Nc2c(C)c(OC[C@@H](O)C(F)(F)F)nn2-c2ccccc2)[C@H](c2cc(F)cc(F)c2)C1 | < 100 nM
Cc1cc(Nc2nc3c(cc2F)ncn3[C@@H](CO)c2ccc(F)cn2)n[nH]1 | 73 nM
CCc1ccc(Nc2ccc(C(=O)c3c[nH]c4ncnc(NCCOC)c34)c(F)n2)cn1 | < 10 nM

Short answer for `CS(=O)(=O)c1cnc2[nH]cc(Cc3cc(F)c(OCc4nc5ccccc5[nH]4)cc3F)c2c1` : IC50 was ≤ 10000 nM

Short answer for `COc1cc(Nc2nc3c(cc2F)ncn3[C@@H](C)c2ccc(F)cn2)n[nH]1` : IC50 was 3 nM

Short answer for `COC(=O)c1ccc(Oc2nc(N3CCN(C)CC3)ccc2NC(=O)c2coc3c2C(=O)NCCC3)cc1` : IC50 was 682 nM

Short answer for `CCCS(=O)(=O)Nc1ccc(F)c(C(=O)c2c[nH]c3ncc(CCCOC)cc23)c1F` : IC50 was ≤ 10000 nM

Short answer for `COCCN1C[C@@H](NC(=O)Nc2c(C)c(=O)[nH]n2-c2ccccc2)[C@H](c2cc(F)c(F)c(F)c2)C1` : IC50 was < 100 nM

Short answer for `CC(=O)Nc1ccc(-c2cc(OC3CCOCC3)c3c(C)n[nH]c3c2)cc1N1CCN(C(=O)C2CCC2)CC1` : IC50 was 25.4 nM

Short answer for `COc1cc2nccc(Oc3ccc(NC(=O)c4cn(C(C)C)c(=O)n(-c5ccccc5F)c4=O)cc3F)c2c2c1OCCO2` : IC50 was 500 to 5000 nM

Short answer for `COCCN1C[C@@H](NC(=O)Nc2cc(-c3cccc(C)c3)nn2C)[C@H](c2ccc(F)c(F)c2)C1` : IC50 was < 100 nM

Short answer for `C[C@H]1CNC(=O)c2cnn3cc(-c4c(F)cccc4F)c(nc23)NCc2cc(F)cnc2O1` : IC50 was 304 nM

Short answer for `CCOC(=O)c1nn(-c2ccccc2)c(NC(=O)N[C@@H]2CN(CCOC)C[C@H]2c2ccc(F)c(F)c2)c1Br` : IC50 was < 100 nM

Short answer for `COCCN1C[C@@H](NC(=O)Nc2c(C)c(OCCF)nn2-c2ccccc2)[C@H](c2cncc(F)c2)C1` : IC50 was < 100 nM

====

High affinity nerve growth factor receptor (Homo sapiens) pIC50, compiled from various sources.
The quantity pIC50 is defined as the negative base-10 logarithm of the molar concentration.

COc1cc2nccc(Oc3ccc(NC(=O)c4nn(C5CC5)cc(-c5ccc(F)cc5)c4=O)nc3)c2cc1OC | 8.52

Note to self: pIC50 of `CN1CCc2occ(C(=O)Nc3cc4cn[nH]c4cc3Cl)c2C1=O` with High affinity nerve growth factor receptor (Homo sapiens) was 6.44

Note to self: pIC50 of `Fc1cc(F)cc(Sc2ccc3[nH]nc(C#Cc4ccccn4)c3c2)c1` with High affinity nerve growth factor receptor (Homo sapiens) was 7.27

Note to self: pIC50 of `Fc1cc(F)cc(NCc2ccc3[nH]nc(/C=C/c4ccccn4)c3c2)c1` with High affinity nerve growth factor receptor (Homo sapiens) was 8.04
